Hi there, I'd appreciate the recorded Plant response rating, Corn for every entry that follows.
# Tested on: corn (Zea mays)
# TEST_METHOD_NOTES: Test C postemergence, plant response rating
# Type: in vivo
# TEST_CONTEXT: 31 g ai/ha, scale 0 to 100
Quick one: just the number, no unit, thanks!

Exercise: I am curious: what Plant response rating, Corn value has been reported for O=C(CCCC(F)(F)F)c1c(Cl)cccc1Oc1ncc(Cl)cn1 [Compound 143] ?
Key: 20

Exercise: I am curious: what Plant response rating, Corn value has been reported for O=C(CCCC(F)(F)F)c1c(Br)cccc1Oc1ncc(Cl)cn1 [Compound 77] ?
Key: 15

Exercise: I am curious: what Plant response rating, Corn value has been reported for FC(F)(F)CCCCc1c(Cl)cccc1Oc1ncc(Cl)cn1 [Compound 137] ?
Key: 15

Exercise: I am curious: what Plant response rating, Corn value has been reported for FC(F)(F)CCCCc1c(Br)cccc1Oc1ncc(Cl)cn1 [Compound 138] ?
Key: 20

Exercise: I am curious: what Plant response rating, Corn value has been reported for CCCC(=O)c1c(Oc2ncc(Cl)cn2)cccc1C(F)(F)F [Compound 136] ?
Key: 10

* * *

Hi there, I'd appreciate the recorded Geranium, Cutleaf plant response rating for every entry that follows.
# System: geranium, cutleaf (cutleaf geranium, Geranium dissectum)
# TEST_METHOD_NOTES: Test C postemergence, plant response rating
# Assay type: in vivo
# TEST_CONTEXT: 62 g ai/ha, scale 0 to 100 (0 no effect, 100 complete control)
Quick one: just the number, no unit, thanks!

Exercise: I am curious: what Geranium, Cutleaf plant response rating value has been reported for CCCCC(=O)c1c(Br)cccc1Oc1ncc(Cl)cn1 [Compound 79] ?
Key: 55

Exercise: I am curious: what Geranium, Cutleaf plant response rating value has been reported for CCCC(=O)c1c(Oc2ncc(Cl)cn2)cccc1C(F)(F)F [Compound 136] ?
Key: 50

Exercise: I am curious: what Geranium, Cutleaf plant response rating value has been reported for CCCCC(=O)c1c(Oc2ncc(Cl)cn2)cccc1C(F)(F)F [Compound 130] ?
Key: 45

Exercise: I am curious: what Geranium, Cutleaf plant response rating value has been reported for O=C(CCC(F)(F)F)c1c(Cl)cccc1Oc1ncc(Cl)cn1 [Compound 107] ?
Key: 60

Exercise: I am curious: what Geranium, Cutleaf plant response rating value has been reported for FC(F)(F)CCCc1c(Br)cccc1Oc1ncc(Cl)cn1 [Compound 89] ?
Key: 50

* * *

# Test system: pigweed, palmer (palmer pigweed, Amaranthus palmeri)
# TEST_METHOD_NOTES: Test C postemergence, plant response rating
# Format: in vivo
# TEST_CONTEXT: 16 g ai/ha, scale of 0 to 100
ASSAY_READOUT: Plant response rating, Pigweed, Palmer

Exercise: I am curious: what Plant response rating, Pigweed, Palmer value has been reported for O=C(CCCC(F)(F)F)c1c(Cl)cccc1Oc1ncc(Cl)cn1 [Compound 143] ?
Key: 45

Exercise: I am curious: what Plant response rating, Pigweed, Palmer value has been reported for CCCCC(=O)c1c(Oc2ncc(Cl)cn2)cccc1C(F)(F)F [Compound 130] ?
Key: 35

Exercise: I am curious: what Plant response rating, Pigweed, Palmer value has been reported for N#Cc1cccc(Oc2ncc(Cl)cn2)c1COCCC(F)(F)F [Compound 80] ?
Key: 30

Exercise: I am curious: what Plant response rating, Pigweed, Palmer value has been reported for O=C(CCCCC(F)(F)F)c1c(Br)cccc1Oc1ncc(Cl)cn1 [Compound 82] ?
Key: 75

* * *

# Test system: ryegrass, Italian (Italian ryegrass, Lolium multiflorum)
# TEST_METHOD_NOTES: Test C postemergence, plant response rating
# Format: in vivo
# TEST_CONTEXT: 125 g ai/ha, scale 0 to 100 (0 no effect, 100 complete control)
# Text: […]
ASSAY_READOUT: Ryegrass, Italian plant response rating
Quick one: just the number, no unit, thanks!

Exercise: I am curious: what Ryegrass, Italian plant response rating value has been reported for `O=C(CCCC(F)(F)F)c1c(Oc2ncc(Cl)cn2)cccc1C(F)(F)F` ?
Key: 15

Exercise: I am curious: what Ryegrass, Italian plant response rating value has been reported for `N#Cc1cccc(Oc2ncc(Cl)cn2)c1COCCC(F)(F)F` ?
Key: 5

Exercise: I am curious: what Ryegrass, Italian plant response rating value has been reported for `O=C(CCC(F)(F)F)c1c(Br)cccc1Oc1ncc(Cl)cn1` ?
Key: 30

Exercise: I am curious: what Ryegrass, Italian plant response rating value has been reported for `N#CCCOC(=O)c1c(Br)cccc1Oc1ncc(Cl)cn1` ?
Key: 30

Exercise: I am curious: what Ryegrass, Italian plant response rating value has been reported for `CCCC(=O)c1c(Br)cccc1Oc1ncc(Cl)cn1` ?
Key: 5

* * *

Hi there, I'd appreciate the recorded Plant response rating, Foxtail, Giant for every entry that follows.
# Tested on: foxtail, giant (giant foxtail, Setaria faberii)
# TEST_METHOD_NOTES: Test C postemergence, plant response rating
# Assay type: in vivo
# TEST_CONTEXT: 31 g ai/ha, scale 0 to 100
Quick one: just the number, no unit, thanks!

Exercise: foxtail, giant (giant foxtail, Setaria faberii) / Plant response rating, Foxtail, Giant / `CCCCC(=O)c1c(Br)cccc1Oc1ncc(Cl)cn1` : value?
Key: 20

Exercise: foxtail, giant (giant foxtail, Setaria faberii) / Plant response rating, Foxtail, Giant / `CCCC(=O)c1c(Br)cccc1Oc1ncc(Cl)cn1` : value?
Key: 10

Exercise: foxtail, giant (giant foxtail, Setaria faberii) / Plant response rating, Foxtail, Giant / `O=C(OCCC(F)(F)F)c1c(Br)cccc1Oc1ncc(Br)cn1` : value?
Key: 10

Exercise: foxtail, giant (giant foxtail, Setaria faberii) / Plant response rating, Foxtail, Giant / N#CC(CCCC(F)(F)F)c1ccccc1Oc1ncc(Cl)cn1 (stereo not shown) : value?
Key: 10

Exercise: foxtail, giant (giant foxtail, Setaria faberii) / Plant response rating, Foxtail, Giant / `O=C(CCC(F)(F)F)c1c(Br)cccc1Oc1ncc(Cl)cn1` : value?
Key: 20

Exercise: foxtail, giant (giant foxtail, Setaria faberii) / Plant response rating, Foxtail, Giant / `O=C(CCCC(F)(F)F)c1c(Cl)cccc1Oc1ncc(Cl)cn1` : value?
Key: 10

Exercise: foxtail, giant (giant foxtail, Setaria faberii) / Plant response rating, Foxtail, Giant / `O=C(CCC(F)(F)C(F)(F)F)c1c(Br)cccc1Oc1ncc(Cl)cn1` : value?
Key: 10

* * *

# Test system: field poppy (Papaver rhoeas)
# TEST_METHOD_NOTES: Test C postemergence, plant response rating
# Type: in vivo
# TEST_CONTEXT: 62 g ai/ha, scale 0 to 100 (0 no effect, 100 complete control)
ASSAY_READOUT: Field Poppy plant response rating

Exercise: I am curious: what Field Poppy plant response rating value has been reported for CCCC(=O)c1c(Br)cccc1Oc1ncc(Cl)cn1 [Compound 75] ?
Key: 80

Exercise: I am curious: what Field Poppy plant response rating value has been reported for O=C(CCCC(F)(F)F)c1c(Oc2ncc(Cl)cn2)cccc1C(F)(F)F [Compound 125] ?
Key: 100

Exercise: I am curious: what Field Poppy plant response rating value has been reported for FC(F)(F)CCCCc1c(Br)cccc1Oc1ncc(Cl)cn1 [Compound 138] ?
Key: 100

Exercise: I am curious: what Field Poppy plant response rating value has been reported for CCCCC(=O)c1c(Oc2ncc(Cl)cn2)cccc1C(F)(F)F [Compound 130] ?
Key: 100

Exercise: I am curious: what Field Poppy plant response rating value has been reported for O=C(CCCC(F)(F)F)c1c(Cl)cccc1Oc1ncc(Cl)cn1 [Compound 143] ?
Key: 90

* * *

# Tested on: wild poinsettia (Euphorbia heterophylla)
# TEST_METHOD_NOTES: Test C postemergence, plant response rating
# Format: in vivo
# TEST_CONTEXT: 16 g ai/ha, scale of 0 to 100
# From the text: […]
Hi there, I'd appreciate the recorded Plant response rating, Poinsettia, Wild for every entry that follows.
Quick one: just the number, no unit, thanks!

Exercise: wild poinsettia (Euphorbia heterophylla) / Plant response rating, Poinsettia, Wild / N#CC(CCCC(F)(F)F)c1ccccc1Oc1ncc(Cl)cn1 (stereo not shown) [Compound 144] : value?
Key: 30

Exercise: wild poinsettia (Euphorbia heterophylla) / Plant response rating, Poinsettia, Wild / O=C(CCC(F)(F)C(F)(F)F)c1c(Br)cccc1Oc1ncc(Cl)cn1 [Compound 110] : value?
Key: 40

Exercise: wild poinsettia (Euphorbia heterophylla) / Plant response rating, Poinsettia, Wild / N#Cc1cccc(Oc2ncc(Cl)cn2)c1COCCC(F)(F)F [Compound 80] : value?
Key: 65

Exercise: wild poinsettia (Euphorbia heterophylla) / Plant response rating, Poinsettia, Wild / O=C(CCCC(F)(F)F)c1c(Cl)cccc1Oc1ncc(Cl)cn1 [Compound 143] : value?
Key: 55

* * *

# Tested on: soybean (Glycine max)
# TEST_METHOD_NOTES: Test C postemergence, plant response rating
# Format: in vivo
# TEST_CONTEXT: 31 g ai/ha, scale 0 to 100
Hi there, I'd appreciate the recorded Plant response rating, Soybean for every entry that follows.

Exercise: I am curious: what Plant response rating, Soybean value has been reported for O=C(CCCC(F)(F)F)c1c(Oc2ncc(Cl)cn2)cccc1C(F)(F)F [Compound 125] ?
Key: 60

Exercise: I am curious: what Plant response rating, Soybean value has been reported for FC(F)(F)CCCCc1c(Cl)cccc1Oc1ncc(Cl)cn1 [Compound 137] ?
Key: 30

Exercise: I am curious: what Plant response rating, Soybean value has been reported for FC(F)(F)CCCc1c(Br)cccc1Oc1ncc(Cl)cn1 [Compound 89] ?
Key: 40

Exercise: I am curious: what Plant response rating, Soybean value has been reported for O=C(CCC(F)(F)C(F)(F)F)c1c(Br)cccc1Oc1ncc(Cl)cn1 [Compound 110] ?
Key: 40

Exercise: I am curious: what Plant response rating, Soybean value has been reported for N#CCCOC(=O)c1c(Br)cccc1Oc1ncc(Cl)cn1 [Compound 7] ?
Key: 25

Exercise: I am curious: what Plant response rating, Soybean value has been reported for N#Cc1cccc(Oc2ncc(Cl)cn2)c1COCCC(F)(F)F [Compound 80] ?
Key: 75

Exercise: I am curious: what Plant response rating, Soybean value has been reported for CCCC(=O)c1c(Br)cccc1Oc1ncc(Cl)cn1 [Compound 75] ?
Key: 65
